These data points were gathered from patent US20260242478A1.

assayed-target: T1, PSMA Fab
T1 construct: Used biotinylated and captured on neutravidin plates in the phage ELISA; also called Anti-PSMA Fab; 006 PSMA Fab
test-protocol: phage ELISA; biotinylated PSMA Fab on neutravidin plate, blocking buffer alone; bound phage detected with anti-M13-HRP
assay-endpoint: Phage binding ELISA signal, Anti-PSMA Fab
I'd appreciate a reply containing only the number, no unit.

FTARCEPSWMCVGF (also called Peptide-180 library clone) [Phage-3730]
1.41
ADVRCVPDWMCWGM (also called Peptide-180 library clone) [Phage-3733]
1.4
VNRMCVPVWMCQGF (also called Peptide-180 library clone) [Phage-3739]
1.39
ELPVCRPSWMCGGL (also called Peptide-180 library clone) [Phage-3734]
1.4
QVKYCIPEWMCSSF (also called Peptide-180 library clone) [Phage-3735]
1.4

Consider now this further binder.
For the binder shown here, VQPWCVPSWMCERF (also called Peptide-180 library clone) [Phage-3743] , give the reported Phage binding ELISA signal, Anti-PSMA Fab.
1.39
